Biological target: SIRT1 (Homo sapiens)
Sequence (Q96EB6 1-747): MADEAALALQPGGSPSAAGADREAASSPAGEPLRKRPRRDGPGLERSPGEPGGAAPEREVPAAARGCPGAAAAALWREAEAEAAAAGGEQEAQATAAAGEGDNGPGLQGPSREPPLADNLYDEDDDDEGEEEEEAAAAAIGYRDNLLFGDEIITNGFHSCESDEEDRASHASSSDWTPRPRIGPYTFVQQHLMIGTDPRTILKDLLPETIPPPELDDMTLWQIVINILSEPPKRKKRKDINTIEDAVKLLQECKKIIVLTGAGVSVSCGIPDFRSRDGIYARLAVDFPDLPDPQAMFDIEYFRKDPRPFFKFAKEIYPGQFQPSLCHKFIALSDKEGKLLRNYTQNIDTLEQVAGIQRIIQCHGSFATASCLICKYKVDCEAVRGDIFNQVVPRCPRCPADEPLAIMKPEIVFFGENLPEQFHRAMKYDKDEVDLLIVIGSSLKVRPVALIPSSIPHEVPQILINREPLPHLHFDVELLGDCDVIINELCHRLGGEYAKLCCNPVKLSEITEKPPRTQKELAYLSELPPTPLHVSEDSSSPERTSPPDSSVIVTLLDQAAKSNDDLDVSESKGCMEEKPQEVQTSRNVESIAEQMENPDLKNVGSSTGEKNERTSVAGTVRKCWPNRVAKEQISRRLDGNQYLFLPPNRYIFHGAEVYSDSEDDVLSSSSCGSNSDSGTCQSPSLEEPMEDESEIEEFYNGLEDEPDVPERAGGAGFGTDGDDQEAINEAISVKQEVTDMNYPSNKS
Test: Trp mass spectrometry assay (SIRT1 activation)
Format: biochemical
Conditions: concentration of test compound that results in 150% activation of SIRT1; Trp peptide substrate
endpoint_name: Tryp AVG EC1.5 (μM)

# molecule, Tryp AVG EC1.5 (μM)
measured = [
    ("O=C(Nc1ccccn1)N1c2nc(Cl)ccc2N2CC[C@H]1C2 [Example 258]", "C (EC1.5>25 μM)"),
    ("Cc1cncc(-c2ccc3c(n2)N(C(=O)Nc2cccnn2)[C@H]2CCCN3C2)c1 [Example 519]", "A (EC1.5<1 μM)"),
    ("COc1cc(NC(=O)N2c3nc(-c4cncc(Cl)c4)ccc3N3CCC[C@H]2C3)ncn1 [Example 405]", "A (EC1.5<1 μM)"),
    ("Cc1cncc(NC(=O)N2c3nc(N4CCCC(C(F)(F)F)C4)ccc3N3CCC[C@H]2C3)c1 (stereo partly shown) [Example 289]", "A (EC1.5<1 μM)"),
    ("O=C(Nc1ccccn1)N1c2nc(-c3cc(F)cc(C(F)(F)F)c3)ccc2N2CC[C@H]1C2 [Example 333]", "A (EC1.5<1 μM)"),
]

Qu. Dear colleague, I am looking for the recorded Tryp AVG EC1.5 (μM) of the following molecule: Cc1nc(NC(=O)N2c3nc(-c4cncc(C(F)(F)F)c4)ccc3N3CCC[C@H]2C3)sc1C [Example 427]
Ans. A (EC1.5<1 μM)

Qu. Dear colleague, I am looking for the recorded Tryp AVG EC1.5 (μM) of the following molecule: Cc1cc(-c2ccc3c(n2)N(C(=O)Nc2ccc4cn(C)cc4c2)[C@H]2CCN3C2)ccn1 [Example 483]
Ans. A (EC1.5<1 μM)

Qu. Dear colleague, I am looking for the recorded Tryp AVG EC1.5 (μM) of the following molecule: N#Cc1cccc(-c2ccc3c(n2)N(C(=O)Nc2cccnn2)[C@H]2CCCN3C2)c1 [Example 381]
Ans. B (EC1.5 1-25 μM)

Qu. Dear colleague, I am looking for the recorded Tryp AVG EC1.5 (μM) of the following molecule: O=C(Nc1ccc(F)cn1)N1c2nc(-c3cncc(Cl)c3)ccc2N2CC[C@H]1C2 [Example 261]
Ans. A (EC1.5<1 μM)

Qu. Dear colleague, I am looking for the recorded Tryp AVG EC1.5 (μM) of the following molecule: O=C(Nc1ccnc(Br)c1)N1c2nc(-c3cccc(C(F)(F)F)c3)ccc2N2CC[C@H]1C2 [Example 541]
Ans. A (EC1.5<1 μM)
